Experiment: LCM concentration in serum of dams by UHPLC-QTOF-MS
Type: in vivo, mice
Details: female, mouse, intraperitoneal, 24 h post-injection, 2 dams in each dose group (10-120 mg/kg), no relationship with dose
Method: Maternal weights were assessed at the end of the treatment periods. […] Samples were extracted as described previously[25] with slight modifications. Briefly, embryos were rinsed with cold saline and ultrapure water, and their wet-weight was determined. […]
Experimental Endpoint: concentration at 24 h

Req: Which measured concentration at 24 h value corresponds to "COC[C@@H](NC(C)=O)C(=O)NCc1ccccc1" ?
Resp: 5 to 133 ng/mL
